Consider the following compounds; for each one, report its activity coefficient.
assay: activity coefficient (dimensionless); of the first substance listed, at infinite dilution; xn = mol fraction of the nth substance listed; conditions: 308.15 K; 100 kPa; Liquid; Chromatography; x1 = 0
Answers are plain numbers.

As a guide, the following entries are already answered.
CCCCCCC [heptane] + CCCC[n+]1ccc(C#N)cc1.O=S(=O)([N-]S(=O)(=O)C(F)(F)F)C(F)(F)F : 45.8
CC(C)O [propan-2-ol] + CCCC[n+]1ccc(C#N)cc1.O=S(=O)([N-]S(=O)(=O)C(F)(F)F)C(F)(F)F : 2.25
CC(C)OC(C)C [diisopropyl ether] + CCCC[n+]1ccc(C#N)cc1.O=S(=O)([N-]S(=O)(=O)C(F)(F)F)C(F)(F)F : 9.7
CC(C)=O [acetone] + CCCC[n+]1ccc(C#N)cc1.O=S(=O)([N-]S(=O)(=O)C(F)(F)F)C(F)(F)F : 0.377
C=CCCCCC [1-heptene] + CCCC[n+]1ccc(C#N)cc1.O=S(=O)([N-]S(=O)(=O)C(F)(F)F)C(F)(F)F : 21.3
CCC(C)O (configuration not stated) [butan-2-ol] + CCCC[n+]1ccc(C#N)cc1.O=S(=O)([N-]S(=O)(=O)C(F)(F)F)C(F)(F)F : 2.69

Shifting focus to the compound that follows.
activity coefficient in this record for CC(C)CC(C)(C)C [2,2,4-trimethylpentane] + CCCC[n+]1ccc(C#N)cc1.O=S(=O)([N-]S(=O)(=O)C(F)(F)F)C(F)(F)F : 46.5
